Target: human CDK7/cycH/MAT1 (Homo sapiens (Human))
Sequence (P50613 whole entry): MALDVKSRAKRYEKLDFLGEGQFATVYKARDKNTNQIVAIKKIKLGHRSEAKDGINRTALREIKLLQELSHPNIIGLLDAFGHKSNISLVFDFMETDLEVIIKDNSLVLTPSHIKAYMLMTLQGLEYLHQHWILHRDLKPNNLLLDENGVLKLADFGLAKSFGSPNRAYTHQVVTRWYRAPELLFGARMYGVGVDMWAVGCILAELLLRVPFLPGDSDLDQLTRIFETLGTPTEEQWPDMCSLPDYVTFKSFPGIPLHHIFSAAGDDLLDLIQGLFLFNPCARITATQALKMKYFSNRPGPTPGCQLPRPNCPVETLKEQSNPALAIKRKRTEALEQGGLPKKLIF
Sequence (P51946 whole entry partner): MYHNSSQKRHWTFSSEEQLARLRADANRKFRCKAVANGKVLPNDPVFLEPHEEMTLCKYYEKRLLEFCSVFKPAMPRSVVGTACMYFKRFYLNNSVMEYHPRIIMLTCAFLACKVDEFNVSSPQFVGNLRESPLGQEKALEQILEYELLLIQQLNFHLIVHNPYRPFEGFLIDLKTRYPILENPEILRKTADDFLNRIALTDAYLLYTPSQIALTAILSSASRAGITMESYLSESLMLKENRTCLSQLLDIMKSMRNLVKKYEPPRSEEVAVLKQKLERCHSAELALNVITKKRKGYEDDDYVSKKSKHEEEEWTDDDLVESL
Sequence (P51948 whole entry partner): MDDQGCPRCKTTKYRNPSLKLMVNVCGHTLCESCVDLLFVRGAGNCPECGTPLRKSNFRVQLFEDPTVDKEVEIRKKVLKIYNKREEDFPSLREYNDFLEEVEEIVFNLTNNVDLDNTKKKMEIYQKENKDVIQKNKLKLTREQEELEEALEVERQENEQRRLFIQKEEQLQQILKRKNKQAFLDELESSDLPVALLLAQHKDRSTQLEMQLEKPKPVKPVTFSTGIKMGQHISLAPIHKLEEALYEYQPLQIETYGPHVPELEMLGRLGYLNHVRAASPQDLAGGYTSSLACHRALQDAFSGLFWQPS
Experiment: CDK7 IC50 (ADP-Glo kinase assay)
Format: biochemical
Details: ratio of CDK7 IC50 of REF-001 to compound
Measured endpoint: CDK7 Potency: Improvement vs. REF-001 (fold)
Give the value in fold but do not write fold after it.

Please give measured CDK7 Potency: Improvement vs. REF-001 of the following entry: `CCc1cnn2c(NCc3ccccc3F)cc(NC[C@H]3CCNC[C@@H]3O)nc12`
2.62

Please give measured CDK7 Potency: Improvement vs. REF-001 of the following entry: `CCc1cnn2c(NCc3cccc(C#N)c3)c(Cl)c(NC[C@H]3CCNC[C@@H]3O)nc12`
8.10

Please give measured CDK7 Potency: Improvement vs. REF-001 of the following entry: `CCc1cnn2c(NCc3cccc(C#N)c3)cc(NC[C@H]3CCNC[C@@H]3O)nc12`
3.82

Please give measured CDK7 Potency: Improvement vs. REF-001 of the following entry: `O[C@H]1CNCC[C@@H]1CNc1cc(NCc2ccccc2)n2ncc(C3CC3)c2n1`
1.03
